Hey, just so you know, these numbers are from ChEMBL document CHEMBL1123979.

Biological target: Polyunsaturated fatty acid 5-lipoxygenase (Rattus norvegicus, UniProt P12527)
Sequence (P12527 whole entry): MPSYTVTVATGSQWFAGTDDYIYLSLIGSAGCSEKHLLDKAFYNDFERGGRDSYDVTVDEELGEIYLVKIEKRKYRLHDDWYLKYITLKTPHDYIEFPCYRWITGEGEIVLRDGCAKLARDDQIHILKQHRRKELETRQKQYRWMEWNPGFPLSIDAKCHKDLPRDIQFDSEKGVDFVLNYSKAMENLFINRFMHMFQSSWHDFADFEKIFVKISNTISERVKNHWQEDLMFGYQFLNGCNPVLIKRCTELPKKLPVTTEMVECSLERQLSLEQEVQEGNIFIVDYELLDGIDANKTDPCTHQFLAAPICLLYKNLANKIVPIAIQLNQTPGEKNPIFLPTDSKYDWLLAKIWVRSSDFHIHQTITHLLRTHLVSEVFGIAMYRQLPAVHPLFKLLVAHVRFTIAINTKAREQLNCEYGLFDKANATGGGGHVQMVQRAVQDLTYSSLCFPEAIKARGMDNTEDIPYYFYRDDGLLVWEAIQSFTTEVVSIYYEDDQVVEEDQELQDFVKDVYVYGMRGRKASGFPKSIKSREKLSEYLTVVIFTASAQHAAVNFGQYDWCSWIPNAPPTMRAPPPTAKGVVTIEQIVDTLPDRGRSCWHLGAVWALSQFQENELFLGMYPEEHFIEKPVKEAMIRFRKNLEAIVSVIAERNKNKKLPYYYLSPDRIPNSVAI
Experiment: In vitro inhibition of 5-lipoxygenase from RBL-1 cells
pIC50: −log10 of the molar value.
Recorded measurements of pIC50, one per entry

>  <COMPOUND>
CCCCOc1ccc(OCCN(O)C(C)=O)cc1

>  <pIC50>
6.12

$$$$
>  <COMPOUND>
CCCCOc1ccc(C(C)(C)N(O)C(C)=O)cc1

>  <pIC50>
6.19

$$$$
>  <COMPOUND>
CCCCOc1ccc(C(C)N(O)C(=O)c2ccccc2)cc1 (stereo unspecified)

>  <pIC50>
5.89

$$$$
>  <COMPOUND>
CC(=O)N(O)C(C)c1ccc(SCc2ccccc2)cc1 (stereo unspecified)

>  <pIC50>
6.72

$$$$
>  <COMPOUND>
CC(C)C(=O)N(O)C(C)c1ccc(OCc2ccccc2)cc1 (stereo unspecified)

>  <pIC50>
6.33

$$$$
>  <COMPOUND>
CC(=O)N(O)C(C)c1ccc(OC(c2ccccc2)C(C)C)cc1 (stereo unspecified)

>  <pIC50>
6.21

$$$$
